Cited source: the nanobody polyreactivity screen of Harvey et al. (2022)

# Measurement Protocol: yeast display, Sf9 membrane polyspecificity reagent, FACS + sequencing; frameworks hold sequencing errors
Assay Readout: polyreactivity (PSR sort gate)

Solved cases below.
1) QVQLVESGGGLVQAGGSLRLSCAASGSIFWWNAMGGYRQAPGKERELVAAINWSTGRTYYADSVKGRFTISRDNAKNTVYLQMNSLKPEDTAVYYCAASFVGALGYDYWGQGTQVTVSS ... low polyreactivity
2) QVQHVESGGGIVQAGGSLRLSCPASGSIYRKYAMGWSRQTPGKERELVAAIRSSGGSTYYADSVKGRFTISRDNAKNTVYLQMNSLKPEDTAVYYCASTYYRPSRYDYCGQGTQVTVSS ... high polyreactivity
3) QVQLVESGGCLVQAGGSLRLSCAASGGIFSYNAMGWYRQAPGKERELVAAISYSGGNTYYADSVKGRFTISRDNAKNTVYLQMNSLKPEDTAVYYCAATGYYNWYTSGYWGQGTQVTVSS ... high polyreactivity
4) QVQLVESGGGLVHAGGRLRLSCAASGRTFVSYVMGWYRQAPGKERELVAAISGNGGRTYYADSVKGRFTISRDNAKNTVYLQMNSLKPEDTAVYYCAAELFVSYFDVLMYYWGQGTQVTVSS ... high polyreactivity
5) QDQLVESGGGLVQAGGSLRLSCAASGRTLTRYTMGWYRQAPGKERELVATISRSGGNTHYADSVKGRFTISRDTAKNTVYLQMNSLIPEDTAVYYCNAVRYAIYGYDYWGQGTQVTVSS ... high polyreactivity
6) QVQLVESGGGLVQAGGSLRLSCAASGSTFRRNAMGWYRQAPGKERELVAAISSGGGSTYYADSVKGRFTISRDNAKNTVYLQMNSLKPEVTAVYYCAAGYFGHYVEYYYWGQGTQVTVSS ... high polyreactivity

Identify the reported polyreactivity (PSR sort gate) for the following entry. QDQHVESGGGLVQAGGSLRLSCDASGFIFSYYTMGCYRQAPGKERELVAAIRSSGGSTYADSVKGRFTISRDNAKNTVYLQMTSLKPEDTAVYYCAAVQTWRWVYARDYWGQGTQVTVSS
high polyreactivity

Supply reported polyreactivity (PSR sort gate) belonging to this sequence: QVQLVESGGGLVQAGGSLRLSCSASGSIFYYKAMGWYRQAPGKERELVAAISYRGTSTYYADSVKGRFTISRDNAKNTVSLQMNSLKPEDTAVYYCAAPALYTSRRYYYWGQGNQVTVSS
high polyreactivity

Return polyreactivity (PSR sort gate) (reported value) for this sequence: QVQLVESGGGLVQAGGSLRLSCAASGSTFVWYDMGWYRQAPGKERELVATITSGGITTYADSVKGRFTISRDNAKNTVYLQMNSPKPEDTAVYYCNADLYYWLRYYDRNEYRGQGTQVTVSS
low polyreactivity

Indicate its recorded polyreactivity (PSR sort gate); the sequence in question is QVQLVESGGGLVQAGGSLRLSCAASGRIFDGNAMGWYRKAPGKERELVATITRGGRTNYADSVKGRFTISRDNAKNTVYLQMNSLKPEDTAVYYCNAPIYGRYYDLDYWGQGTQVTVSS
low polyreactivity

Tell me polyreactivity (PSR sort gate) reported for QVQLVESGGGLVQAGGSLRLSCAASGFIFKIYAMGWYRQAPGKERELVAAMSSGDNTNYADSVKGRFTISRDNAKNTVYLQMNSLKPEDTAVYYCAADWSPTAASDYWGQGTQVTVSS
high polyreactivity
